system: P. aeruginosa CDC-0110; assay: microbe, parasite or virus in culture; type: cell-based; details: Pseudomonas aeruginosa, CDC0110, read-out: Minimum inhibitory concentration, P. aeruginosa CDC-0110
The following compounds are listed with their measured MIC values.

{"columns": ["Compound", "MIC"],
 "data": [
  ["O=C(O)c1c(F)ccc2c1OB(O)[C@@H](NC(=O)C(NC(=O)N1CCN(C3CCN(C(=O)Cc4cccc(O)c4)CC3)C(=O)C1=O)c1cc(F)c(O)c(O)c1Cl)C2 (stereo partly drawn) [Example 474]", "< 1 µg/mL"],
  ["CN(CCN1CCN(C(=O)NC(C(=O)N[C@H]2Cc3ccc(F)c(C(=O)O)c3OB2O)c2cc(F)c(O)c(O)c2Cl)C(=O)C1=O)S(=O)(=O)c1ccc(C(N)=O)cc1 (stereo partly drawn) [Example 223]", "< 1 µg/mL"],
  ["O=C(NCCCS(=O)(=O)N1CCN(C(=O)NC(C(=O)N[C@H]2Cc3ccc(F)c(C(=O)O)c3OB2O)c2cc(F)c(O)c(O)c2Cl)C1=O)Nc1cccc(O)c1 (stereo partly drawn) [Example 277]", "8 to 16 µg/mL"]
]}
